Hello, the source for this data is paper PMC4367269, in case you need it.

- Substrate: O=c1ccn([C@@H]2O[C@H](COP(=O)(O)OP(=O)(O)O[C@H]3O[C@H](CO)[C@H](O)[C@H](O)[C@H]3O)[C@@H](O)[C@H]2O)c(=O)[nH]1
- methodSummary: galactosyltransferase assay, HPLC-UV
- Type: biochemical, Homo sapiens
- protocolConditions: apparent, fixed 5 mM 4-MUX, 10 mM MnCl2, 100 mM sodium cacodylate pH 7.0, 37 °C
Threshold rule: kcat greater than or equal to 1 s⁻¹ is TRUE; below that, FALSE.

Query: API: above_or_equal(metric=kcat, cutoff=1 s⁻¹) for item hβ4GalT7 (GST-β4GalT7) (Homo sapiens) (protein, truncated soluble form lacking the first 60 N-terminal amino acids (transmembrane domain and part of stem), GST fusion (tag kept), pET-41a(+), E. coli BL21(DE3), glutathione-Sepharose purified) VRGQGQETSGPPRACPPEPPPEHWEEDASWGPHRLAVLVPFRERFEELLVFVPHMRRFLSRKKIRHHIYVLNQVDHFRFNRAALINVGFLESSNSTDYIAMHDVDLLPLNEELDYGFPEAGPFHVASPELHPLYHYKTYVGGILLLSKQHYRLCNGMSNRFWGWGREDDEFYRRIKGAGLQLFRPSGITTGYKTFRHLHDPAWRKRDQKRIAAQKQEQFKVDREGGLNTVKYHVASRTALSVGGAPCTVLNIMLDCDKTATPWCTFS
Reply: TRUE

Query: In plain terms: is recorded kcat at least 1 s⁻¹ for hβ4GalT7 (GST-β4GalT7) (Homo sapiens; Y199F) (protein, truncated soluble form lacking the first 60 N-terminal amino acids (transmembrane domain and part of stem), GST fusion (tag kept), pET-41a(+), E. coli BL21(DE3), glutathione-Sepharose purified) VRGQGQETSGPPRACPPEPPPEHWEEDASWGPHRLAVLVPFRERFEELLVFVPHMRRFLSRKKIRHHIYVLNQVDHFRFNRAALINVGFLESSNSTDYIAMHDVDLLPLNEELDYGFPEAGPFHVASPELHPLYHYKTFVGGILLLSKQHYRLCNGMSNRFWGWGREDDEFYRRIKGAGLQLFRPSGITTGYKTFRHLHDPAWRKRDQKRIAAQKQEQFKVDREGGLNTVKYHVASRTALSVGGAPCTVLNIMLDCDKTATPWCTFS ?
Reply: TRUE

Query: Check this protein for kcat at or above 1 s⁻¹: hβ4GalT7 (GST-β4GalT7) (Homo sapiens; H195Q) (protein, truncated soluble form lacking the first 60 N-terminal amino acids (transmembrane domain and part of stem), GST fusion (tag kept), pET-41a(+), E. coli BL21(DE3), glutathione-Sepharose purified) VRGQGQETSGPPRACPPEPPPEHWEEDASWGPHRLAVLVPFRERFEELLVFVPHMRRFLSRKKIRHHIYVLNQVDHFRFNRAALINVGFLESSNSTDYIAMHDVDLLPLNEELDYGFPEAGPFHVASPELHPLYQYKTYVGGILLLSKQHYRLCNGMSNRFWGWGREDDEFYRRIKGAGLQLFRPSGITTGYKTFRHLHDPAWRKRDQKRIAAQKQEQFKVDREGGLNTVKYHVASRTALSVGGAPCTVLNIMLDCDKTATPWCTFS
Reply: TRUE

Query: hey, is kcat for this one >= 1 s⁻¹? hβ4GalT7 (GST-β4GalT7) (Homo sapiens; H195R) (protein, truncated soluble form lacking the first 60 N-terminal amino acids (transmembrane domain and part of stem), GST fusion (tag kept), pET-41a(+), E. coli BL21(DE3), glutathione-Sepharose purified) VRGQGQETSGPPRACPPEPPPEHWEEDASWGPHRLAVLVPFRERFEELLVFVPHMRRFLSRKKIRHHIYVLNQVDHFRFNRAALINVGFLESSNSTDYIAMHDVDLLPLNEELDYGFPEAGPFHVASPELHPLYRYKTYVGGILLLSKQHYRLCNGMSNRFWGWGREDDEFYRRIKGAGLQLFRPSGITTGYKTFRHLHDPAWRKRDQKRIAAQKQEQFKVDREGGLNTVKYHVASRTALSVGGAPCTVLNIMLDCDKTATPWCTFS
Reply: TRUE

Query: Does the reported kcat for hβ4GalT7 (GST-β4GalT7) (Homo sapiens; Y196F) (protein, truncated soluble form lacking the first 60 N-terminal amino acids (transmembrane domain and part of stem), GST fusion (tag kept), pET-41a(+), E. coli BL21(DE3), glutathione-Sepharose purified) VRGQGQETSGPPRACPPEPPPEHWEEDASWGPHRLAVLVPFRERFEELLVFVPHMRRFLSRKKIRHHIYVLNQVDHFRFNRAALINVGFLESSNSTDYIAMHDVDLLPLNEELDYGFPEAGPFHVASPELHPLYHFKTYVGGILLLSKQHYRLCNGMSNRFWGWGREDDEFYRRIKGAGLQLFRPSGITTGYKTFRHLHDPAWRKRDQKRIAAQKQEQFKVDREGGLNTVKYHVASRTALSVGGAPCTVLNIMLDCDKTATPWCTFS fall at or above the 1 s⁻¹ mark?
Reply: FALSE

Query: Answer whether kcat of hβ4GalT7 (GST-β4GalT7) (Homo sapiens; R226K) (protein, truncated soluble form lacking the first 60 N-terminal amino acids (transmembrane domain and part of stem), GST fusion (tag kept), pET-41a(+), E. coli BL21(DE3), glutathione-Sepharose purified) VRGQGQETSGPPRACPPEPPPEHWEEDASWGPHRLAVLVPFRERFEELLVFVPHMRRFLSRKKIRHHIYVLNQVDHFRFNRAALINVGFLESSNSTDYIAMHDVDLLPLNEELDYGFPEAGPFHVASPELHPLYHYKTYVGGILLLSKQHYRLCNGMSNRFWGWGKEDDEFYRRIKGAGLQLFRPSGITTGYKTFRHLHDPAWRKRDQKRIAAQKQEQFKVDREGGLNTVKYHVASRTALSVGGAPCTVLNIMLDCDKTATPWCTFS is greater than or equal to 1 s⁻¹.
Reply: TRUE
